TESTED TARGET: NAD-dependent protein deacetylase sirtuin-2 (Homo sapiens, UniProt Q8IXJ6)
Sequence (Q8IXJ6 whole entry): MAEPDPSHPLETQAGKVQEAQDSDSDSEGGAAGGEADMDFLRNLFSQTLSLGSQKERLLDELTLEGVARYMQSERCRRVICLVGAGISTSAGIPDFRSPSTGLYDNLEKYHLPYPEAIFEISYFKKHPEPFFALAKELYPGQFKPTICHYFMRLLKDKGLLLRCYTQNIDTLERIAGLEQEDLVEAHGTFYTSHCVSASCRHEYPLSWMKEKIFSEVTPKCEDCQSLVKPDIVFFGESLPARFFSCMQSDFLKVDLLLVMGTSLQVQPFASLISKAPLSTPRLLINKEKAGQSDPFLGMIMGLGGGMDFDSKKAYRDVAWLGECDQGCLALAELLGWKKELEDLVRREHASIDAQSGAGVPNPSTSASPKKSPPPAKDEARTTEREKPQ
TEST DETAILS: Inhibition of human recombinant SIRT2 assessed as inhibition of substrate deacetylation using Gln-Pro-Lys-Lys- (epsilon acetyl) AMC peptide as substrate in presence of NAD+ measured by fluorescence based analysis
pKi: −log10 of the molar value.
Parameter class (string): assigned from measured pKi. Ranges: range A: < 4; range B: ≥ 4 and < 5; range C: ≥ 5

COMPOUND | CAT
O=C(NCCOCCOCCOCCNC(=O)c1cccc(-c2cccnc2)c1)c1cccc(-c2cccnc2)c1 | range C
O=C(NCc1ccc(CNC(=O)c2cccc(-c3cccnc3)c2)cc1)c1cccc(-c2cccnc2)c1 | range B
COc1cc(CC(=O)NCc2ccc(CNC(=O)c3cccc(-c4cccnc4)c3)cc2)cc(OC)c1OC | range C
COc1cc(CC(=O)NCc2ccc(CNC(=O)c3cn4c5c(c(N6CCN(C)CC6)c(F)cc5c3=O)OCC4C)cc2)cc(OC)c1OC (centres undefined) | range A
CC1COc2c(N3CCN(C)CC3)c(F)cc3c(=O)c(C(=O)NCCOCCOCCNC(=O)CCc4nc(-c5ccncc5)no4)cn1c23 (centres undefined) | range B
COc1cc(CC(=O)NCCOCCOCCOCCNC(=O)c2cn3c4c(c(N5CCN(C)CC5)c(F)cc4c2=O)OCC3C)cc(OC)c1OC (centres undefined) | range C

====

TESTED TARGET: NAD-dependent protein deacetylase sirtuin-3, mitochondrial (Homo sapiens)
Sequence (Q9NTG7 whole entry): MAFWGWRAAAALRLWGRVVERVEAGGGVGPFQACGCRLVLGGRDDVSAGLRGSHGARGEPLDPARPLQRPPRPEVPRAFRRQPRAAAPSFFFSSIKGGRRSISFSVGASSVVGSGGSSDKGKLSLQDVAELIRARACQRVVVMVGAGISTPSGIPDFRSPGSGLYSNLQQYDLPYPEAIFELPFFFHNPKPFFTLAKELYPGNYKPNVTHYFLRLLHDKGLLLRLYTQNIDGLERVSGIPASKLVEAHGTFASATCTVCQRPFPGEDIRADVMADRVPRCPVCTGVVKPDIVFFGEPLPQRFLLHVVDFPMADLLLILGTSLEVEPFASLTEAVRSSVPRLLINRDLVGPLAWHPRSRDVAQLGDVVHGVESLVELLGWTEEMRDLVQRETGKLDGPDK
TEST DETAILS: Inhibition of human recombinant SIRT3 assessed as inhibition of substrate deacetylation using Gln-Pro-Lys-Lys- (epsilon acetyl) AMC peptide as substrate in presence of NAD+ measured by fluorescence based analysis

COMPOUND | TESTED TARGET | QUANTITY UNIT | IC50
O=C1CC(C(=O)NCCCCCCNCC(=O)C2CC3CCC2C3)c2ccccc21 (stereo unspecified) | NAD-dependent protein deacetylase sirtuin-3, mitochondrial (Homo sapiens) | µM | 621

====

TESTED TARGET: NAD-dependent protein deacetylase sirtuin-1 (Homo sapiens, UniProt Q96EB6)
Sequence (Q96EB6 whole entry): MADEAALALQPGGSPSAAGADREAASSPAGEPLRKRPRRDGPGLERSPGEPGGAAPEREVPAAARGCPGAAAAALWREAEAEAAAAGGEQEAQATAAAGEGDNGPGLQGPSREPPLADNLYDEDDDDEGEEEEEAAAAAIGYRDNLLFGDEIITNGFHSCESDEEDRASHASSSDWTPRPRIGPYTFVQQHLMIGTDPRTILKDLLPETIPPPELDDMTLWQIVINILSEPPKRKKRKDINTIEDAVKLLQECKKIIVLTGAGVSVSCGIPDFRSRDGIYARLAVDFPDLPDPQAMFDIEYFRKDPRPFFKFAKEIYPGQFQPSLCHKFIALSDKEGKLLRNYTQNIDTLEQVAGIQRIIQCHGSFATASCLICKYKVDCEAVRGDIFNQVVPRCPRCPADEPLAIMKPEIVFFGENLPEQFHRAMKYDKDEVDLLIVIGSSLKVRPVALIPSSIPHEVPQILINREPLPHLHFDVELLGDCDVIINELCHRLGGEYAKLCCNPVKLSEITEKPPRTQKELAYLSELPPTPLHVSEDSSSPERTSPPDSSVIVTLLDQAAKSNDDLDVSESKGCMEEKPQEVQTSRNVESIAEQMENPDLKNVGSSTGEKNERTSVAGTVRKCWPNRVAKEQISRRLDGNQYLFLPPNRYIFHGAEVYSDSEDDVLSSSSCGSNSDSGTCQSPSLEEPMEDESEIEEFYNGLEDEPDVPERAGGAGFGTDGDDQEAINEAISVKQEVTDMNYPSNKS
TEST DETAILS: Inhibition of human recombinant SIRT1 assessed as inhibition of substrate deacetylation using Gln-Pro-Lys-Lys- (epsilon acetyl) AMC peptide as substrate in presence of NAD+ measured by fluorescence based analysis
Below is a list of entries, each paired with its recorded Ki value.
ENDPOINT NAME: Ki (µM)

COMPOUND | QUANTITATIVE READOUT
O=C1CC(C(=O)NCCCNCC(=O)C2CC3CCC2C3)c2ccccc21 (stereo not drawn) | 203
O=C1CC(C(=O)NCCOCCOCCOCCNCC(=O)C2CC3CCC2C3)c2ccccc21 (stereo not drawn) | 645
O=C1CC(C(=O)NCc2ccc(CNCC(=O)C3CC4CCC3C4)cc2)c2ccccc21 (stereo not drawn) | 120
O=C1CC(C(=O)NCCCCCCNCC(=O)C2CC3CCC2C3)c2ccccc21 (stereo not drawn) | 48
O=C(NCCOCCOCCOCCNC(=O)c1cccc(-c2cccnc2)c1)c1cccc(-c2cccnc2)c1 | 35
O=C(NCCCCCCNC(=O)c1cccc(-c2cccnc2)c1)c1cccc(-c2cccnc2)c1 | 73
COc1cc(CC(=O)NCCCCCCNC(=O)c2cccc(-c3cccnc3)c2)cc(OC)c1OC | 85
O=C1CC(C(=O)NCCOCCOCCNCC(=O)C2CC3CCC2C3)c2ccccc21 (stereo not drawn) | 183

====

TESTED TARGET: NAD-dependent protein deacetylase sirtuin-2 (Homo sapiens)
TEST DETAILS: Binding affinity to chip-immobilized recombinant human SIRT2 measured after 300 secs by surface plasmon resonance method

MOLECULE | Kd / µM
CC1COc2c(N3CCN(C)CC3)c(F)cc3c(=O)c(C(=O)NCCOCCOCCOCCNC(=O)CCc4nc(-c5ccncc5)no4)cn1c23 (centres undefined) | 24
O=C(NCCCCCCNC(=O)c1cccc(-c2cccnc2)c1)c1cccc(-c2cccnc2)c1 | 40
COc1cc(CC(=O)NCc2ccc(CNC(=O)c3cccc(-c4cccnc4)c3)cc2)cc(OC)c1OC | 25
COc1cc(CC(=O)NCCOCCOCCOCCNC(=O)c2cn3c4c(c(N5CCN(C)CC5)c(F)cc4c2=O)OCC3C)cc(OC)c1OC (centres undefined) | 7
COc1cc(CC(=O)NCCCNC(=O)c2cn3c4c(c(N5CCN(C)CC5)c(F)cc4c2=O)OCC3C)cc(OC)c1OC (centres undefined) | 39
O=C(NCCOCCOCCOCCNC(=O)c1cccc(-c2cccnc2)c1)c1cccc(-c2cccnc2)c1 | 22
COc1cc(CC(=O)NCCOCCOCCNC(=O)c2cn3c4c(c(N5CCN(C)CC5)c(F)cc4c2=O)OCC3C)cc(OC)c1OC (centres undefined) | 32
COc1cc(CC(=O)NCCCCCCNC(=O)c2cccc(-c3cccnc3)c2)cc(OC)c1OC | 44
COc1cc(CC(=O)NCCCCCCNC(=O)c2cn3c4c(c(N5CCN(C)CC5)c(F)cc4c2=O)OCC3C)cc(OC)c1OC (centres undefined) | 33

====

Below is a list of entries, each paired with its recorded pIC50 value.
TESTED TARGET: NAD-dependent protein deacetylase sirtuin-2 (Homo sapiens)
TEST DETAILS: Inhibition of human recombinant SIRT2 assessed as inhibition of substrate deacetylation using Gln-Pro-Lys-Lys- (epsilon acetyl) AMC peptide as substrate in presence of NAD+ measured by fluorescence based analysis
pIC50: −log10 of the molar value.

MOLECULE | pIC50
O=C(NCCOCCOCCOCCNC(=O)c1cccc(-c2cccnc2)c1)c1cccc(-c2cccnc2)c1 | 4.66
COc1cc(CC(=O)NCCOCCOCCNC(=O)c2cccc(-c3cccnc3)c2)cc(OC)c1OC | 4.01
COc1cc(CC(=O)NCCCCCCNC(=O)c2cccc(-c3cccnc3)c2)cc(OC)c1OC | 4.36
CC1COc2c(N3CCN(C)CC3)c(F)cc3c(=O)c(C(=O)NCCOCCOCCNC(=O)CCc4nc(-c5ccncc5)no4)cn1c23 (stereo unspecified) | 3.73
CC1COc2c(N3CCN(C)CC3)c(F)cc3c(=O)c(C(=O)NCCCCCCNC(=O)CCc4nc(-c5ccncc5)no4)cn1c23 (stereo unspecified) | 3.97
COc1cc(CC(=O)NCCCCCCNC(=O)c2cn3c4c(c(N5CCN(C)CC5)c(F)cc4c2=O)OCC3C)cc(OC)c1OC (stereo unspecified) | 4.48
O=C(NCc1ccc(CNC(=O)c2cccc(-c3cccnc3)c2)cc1)c1cccc(-c2cccnc2)c1 | 4.04
COc1cc(CC(=O)NCCOCCOCCOCCNC(=O)c2cccc(-c3cccnc3)c2)cc(OC)c1OC | 4.03
COc1cc(CC(=O)NCCCNC(=O)c2cn3c4c(c(N5CCN(C)CC5)c(F)cc4c2=O)OCC3C)cc(OC)c1OC (stereo unspecified) | 4.41
CC1COc2c(N3CCN(C)CC3)c(F)cc3c(=O)c(C(=O)NCCCNC(=O)c4cn5c6c(c(N7CCN(C)CC7)c(F)cc6c4=O)OCC5C)cn1c23 (stereo unspecified) | 3.52
O=C1CC(C(=O)NCCCCCCNCC(=O)C2CC3CCC2C3)c2ccccc21 (stereo unspecified) | 3.03
O=C(NCCCCCCNC(=O)c1cccc(-c2cccnc2)c1)c1cccc(-c2cccnc2)c1 | 4.41
CC1COc2c(N3CCN(C)CC3)c(F)cc3c(=O)c(C(=O)NCCOCCOCCOCCNC(=O)CCc4nc(-c5ccncc5)no4)cn1c23 (stereo unspecified) | 4.62
CC1COc2c(N3CCN(C)CC3)c(F)cc3c(=O)c(C(=O)NCc4ccc(CNC(=O)CCc5nc(-c6ccncc6)no5)cc4)cn1c23 (stereo unspecified) | 3.71
CC1COc2c(N3CCN(C)CC3)c(F)cc3c(=O)c(C(=O)NCCOCCOCCNC(=O)c4cn5c6c(c(N7CCN(C)CC7)c(F)cc6c4=O)OCC5C)cn1c23 (stereo unspecified) | 3.42
CC1COc2c(N3CCN(C)CC3)c(F)cc3c(=O)c(C(=O)NCc4ccc(CNC(=O)c5cn6c7c(c(N8CCN(C)CC8)c(F)cc7c5=O)OCC6C)cc4)cn1c23 (stereo unspecified) | 3.73

====

Below is a list of entries, each paired with its recorded pKi value.
TESTED TARGET: UniProt Q8IXJ6
TEST DETAILS: Inhibition of human recombinant SIRT2 assessed as inhibition of substrate deacetylation using Gln-Pro-Lys-Lys- (epsilon acetyl) AMC peptide as substrate in presence of NAD+ measured by fluorescence based analysis
pKi: −log10 of the molar value.

COMPOUND | TESTED TARGET | pKi
COc1cc(CC(=O)NCCCCCCNC(=O)c2cccc(-c3cccnc3)c2)cc(OC)c1OC | UniProt Q8IXJ6 | 4.89
COc1cc(CC(=O)NCCCCCCNC(=O)c2cn3c4c(c(N5CCN(C)CC5)c(F)cc4c2=O)OCC3C)cc(OC)c1OC (stereo not drawn) | UniProt Q8IXJ6 | 5.05
COc1cc(CC(=O)NCCCNC(=O)c2cccc(-c3cccnc3)c2)cc(OC)c1OC | UniProt Q8IXJ6 | 4.06

The reported numbers originate from ChEMBL document CHEMBL4834484.
